Sourced from ChEMBL document CHEMBL1131436

# System: Rattus norvegicus
# ASSAY_PROCEDURE: Maximum % decrease of blood glucose (deltaBG) was observed within 4 hour after administration orally at 0.5 mg/kg dose to fasted adult female rats versus a control group
# Type: functional
# REPORTED_CONDITIONS: route oral
ENDPOINT: Delta BG (%)
Dear colleague, please return just the value in %, with no unit written.

q: # lookup: Delta BG of CCCC(NC(=O)Cc1ccc(C(=O)O)c(OC)c1)c1ccccc1N1CCCCC1 (centres undefined)
a: -31

q: # lookup: Delta BG of CCCCC(NC(=O)Cc1ccc(C(=O)O)c(OCC)c1)c1ccccc1N1CCCCC1 (centres undefined)
a: -45

q: # lookup: Delta BG of CC(NC(=O)Cc1ccc(C(=O)O)cc1)c1ccccc1N1CCCCC1 (centres undefined)
a: -31

q: # lookup: Delta BG of CCC(NC(=O)Cc1ccc(C(=O)O)cc1)c1ccccc1N1CCCCC1 (centres undefined)
a: -28

q: # lookup: Delta BG of CCCCCC(NC(=O)Cc1ccc(C(=O)O)c(OCC)c1)c1ccccc1N1CCCCC1 (centres undefined)
a: -42

q: # lookup: Delta BG of CCCCC(NC(=O)Cc1ccc(C(=O)O)cc1)c1ccccc1N1CCCCC1 (centres undefined)
a: -32

q: # lookup: Delta BG of CC1CC(C)CN(c2ccc(Cl)cc2C(=O)NCCc2ccc(C(=O)O)cc2)C1 (stereo in doubt; 5h)
a: -29

q: # lookup: Delta BG of O=C(O)c1ccc(CCNC(=O)c2cc(Cl)ccc2N2CCCCCCCC2)cc1
a: -33

q: # lookup: Delta BG of CCOc1cc(CC(=O)NC(c2ccccc2)c2ccccc2N2CCCCC2)ccc1C(=O)O (centres undefined)
a: -40
